system: NCI-H23; test: NCI tumour cell line growth inhibition, 48 h
Activity calls are given as the source filed them. Cut-off read from the data, not from the text of the source: active = GI50 up to about 1.1 µM and inactive = higher.
// one of active, inactive, no free text

Task item: Just curious, what result did "CC(=O)Nc1ccc2c(c1)/C(=N/c1ccc(C(=O)O)cc1)c1ccccc1-2" get here?
Reply: inactive

Task item: Just curious, what result did "O=C1Nc2ccccc2/C1=N/N1C(=O)/C(=C/c2ccccc2S)N=C1c1ccccc1" get here?
Reply: inactive

Task item: Just curious, what result did "Cc1cc(C)nc(NS(=O)(=O)c2ccc(NC(=O)c3cccc4c(Nc5ccc(S(=O)(=O)N=C(N)N)cc5)c5ccccc5nc34)cc2)n1" get here?
Reply: inactive

Task item: Just curious, what result did "COc1ccc(Oc2nc3c(N)cc(C(F)(F)F)cc3nc2-c2ccccc2)cc1" get here?
Reply: inactive

Task item: Just curious, what result did CC(=O)NC1CC(C(C)(C)NC(C)=O)CC=C1C (stereo unspecified) get here?
Reply: inactive

Task item: Just curious, what result did "O=C(O)c1cc2ccccc2c(Cc2c(O)c(C(=O)O)cc3ccccc23)c1O" get here?
Reply: inactive

Task item: Just curious, what result did "Cc1cc2nc3c(C)c4ccccc4c(C)n3c2cc1C" get here?
Reply: inactive

Task item: Just curious, what result did "CC(C)(C)c1cc(/C=C(\C#N)C(=O)NCCO)cc(C(C)(C)C)c1O" get here?
Reply: inactive

Task item: Just curious, what result did "O=Cc1cc2c(s1)C(=O)c1sccc1C2=O" get here?
Reply: active

Task item: Just curious, what result did O=C(Nc1ccc([N+](=O)[O-])cc1[N+](=O)[O-])C(=O)C(C(=O)c1ccc2ccccc2c1)C1OC(=O)c2ccccc21 (stereo unspecified) get here?
Reply: inactive

Task item: Just curious, what result did "Cn1c(=O)ccc2c(=O)c3ccccc3oc21" get here?
Reply: inactive

Task item: Just curious, what result did "CCCCCCC(=O)C/C(CCC(=O)N(Cc1ccccc1)Cc1ccccc1)=N\NC(N)=O" get here?
Reply: inactive

Task item: Just curious, what result did CCCC(=O)OCC(O)CO (stereo unspecified) get here?
Reply: inactive

Task item: Just curious, what result did C=C1CC(OC)(C(O)C(=O)N[C@H]2OCO[C@H]3C2O[C@H](C[C@@H](CO)OC)C(C)(C)C3OC)O[C@H](C)[C@@H]1C (stereo partly specified) get here?
Reply: active

Task item: Just curious, what result did "CN(C)CCOC(=O)c1ccc(N)cc1" get here?
Reply: inactive

Task item: Just curious, what result did CNC(=O)C(C)NC(=O)C(Cc1ccccc1)NC(=O)OC(C)(C)C (stereo unspecified) get here?
Reply: inactive

Task item: Just curious, what result did "Cc1nc2c(n1CCCl)C(=O)c1ccccc1C2=O" get here?
Reply: inactive

Task item: Just curious, what result did COC1OC(Cc2nnc(C)o2)C(OCc2ccccc2)C(OCc2ccccc2)C1OCc1ccccc1 (stereo unspecified) get here?
Reply: inactive

Task item: Just curious, what result did Cc1coc2c1CC1OC1(C)CCC1OC1(C)C2 (stereo unspecified) get here?
Reply: inactive

Task item: Just curious, what result did "Cc1c2[nH]c3ccc(Br)cc3c2c(C)c2nccc(O)c12" get here?
Reply: inactive

Task item: Just curious, what result did CC(C)C1CN(C(=O)OCc2ccccc2)C2N1C(=O)C2(C)OCc1ccccc1 (stereo unspecified) get here?
Reply: inactive

###

tested on: HOP-62; assay: NCI tumour cell line growth inhibition, 48 h
Active and inactive are the calls of the source. Cut-off read from the data, not from the text of the source: active = GI50 up to about 1.1 µM and inactive = higher.
// one of active, inactive, no free text

Task item: Just curious, what result did "CCOC(=O)C(=O)/C(=C/n1c(=S)[nH]c2ccc([N+](=O)[O-])cc21)C(=O)OCC" get here?
Reply: inactive

Task item: Just curious, what result did "CC(=O)CC(=O)Nc1ccc2ccccc2c1" get here?
Reply: inactive

Task item: Just curious, what result did "CN(C)CCCNc1cnc2cc3ccccc3cc2n1" get here?
Reply: inactive

Task item: Just curious, what result did "Cc1cc(NS(=O)(=O)c2ccc(Nc3c4ccccc4nc4c(C(=O)NC(CO)(CO)CO)cccc34)cc2)no1" get here?
Reply: inactive

Task item: Just curious, what result did CC(C)c1ccc(C2NC(S)=NC3=C2c2ccccc2C3=O)cc1 (stereo unspecified) get here?
Reply: inactive

Task item: Just curious, what result did CCC1CN2CCc3cc(OC)c(OC)cc3C2CC1CC1c2cc(OC)c(OC)cc2CCN1C(=O)C1CCCN1C(=O)OCc1ccccc1 (stereo unspecified) get here?
Reply: inactive

Task item: Just curious, what result did "Cc1ccc(S(=O)(=O)Oc2cc(N)c3c(n2)CCC3)cc1" get here?
Reply: inactive

Task item: Just curious, what result did "CC(C)(CCCCC(C)(C)NC1=NCCO1)NC1=NCCO1" get here?
Reply: inactive

Task item: Just curious, what result did "C[C@@]12C[C@@H](c3ccccc3O1)N1Cc3ccccc3CSC1=N2" get here?
Reply: inactive

Task item: Just curious, what result did Cc1cc2c(c(/C=N/c3ccc([N+](=O)[O-])cc3)c1)OC1(C=C2)Oc2ccccc2C(=O)N1C (stereo unspecified) get here?
Reply: inactive

Task item: Just curious, what result did "COc1cc(/C=N/N=C2NCCCN2)ccc1O" get here?
Reply: inactive

Task item: Just curious, what result did COC(=O)C1=C(SC)SC2(C(=O)OC)C3C=C(C)C4C(N13)C42C(=O)OC (stereo unspecified) get here?
Reply: inactive

Task item: Just curious, what result did "O=Cc1cc2c(s1)C(=O)c1sccc1C2=O" get here?
Reply: inactive

Task item: Just curious, what result did CCc1cccc(C)c1N1C(=O)C(=O)C(c2nc3ccccc3o2)/C(=N/NC(=S)NN)C1=O (stereo unspecified) get here?
Reply: inactive

Task item: Just curious, what result did "Cc1cccc2c(N)c3cccc(C(=O)NCC[N+](C)(C)Cc4ccc([N+](=O)[O-])n4C)c3nc12" get here?
Reply: inactive

Task item: Just curious, what result did N#CC1=C(N)Nc2nc3ccccc3n2C1c1ccccc1 (stereo unspecified) get here?
Reply: inactive

Task item: Just curious, what result did COc1cc(C2c3cc4c(cc3OC(Nc3ccc(C(=O)O)cc3)C2C)OCO4)cc(OC)c1OC (stereo unspecified) get here?
Reply: active

Task item: Just curious, what result did CC[C@]1(c2ccc3c(c2)OCO3)C=[N+]([O-])O[C@H](OC2CCCC2(c2ccccc2)c2ccccc2)[C@@H]1OC(C)=O (stereo partly specified) get here?
Reply: inactive

Task item: Just curious, what result did CN1CC[C@]2(C)c3ccc(O)cc3CC3CCCC1C32C (stereo partly specified) get here?
Reply: inactive

Task item: Just curious, what result did CN(C)CC1CCC/C1=N\O (stereo unspecified) get here?
Reply: inactive

Task item: Just curious, what result did CC(=O)O[C@H]1CCC2[C@@H]3CCC4C(=O)c5oncc5C[C@]4(C)C3CC[C@@]21C (stereo partly specified) get here?
Reply: inactive

###

tested on: M14; experiment: NCI tumour cell line growth inhibition, 48 h
Calls of active or inactive are those of the source. Cut-off read from the data, not from the text of the source: active = GI50 up to about 1.1 µM and inactive = higher. Positions of bridges follow the written chain, without caps; N, C: chain ends. Non-standard residues stand in square brackets, D forms with d. Residues, ends and D or L forms follow the SMILES beside them. *: point of attachment. Cbz = O=C(OCc1ccccc1)*; Aib = CC(C)(N)C(=O)O; OBn = c1ccc(CO*)cc1; βAla = NCCC(=O)O
assay.endpoint: GI50

Task item: For "CC(=O)CC(=O)Nc1ccc2ccccc2c1" , write its GI50.
Reply: > 100 µM (inactive)

Task item: For COC(=O)C1=C(SC)SC2(C(=O)OC)C3C=C(C)C4C(N13)C42C(=O)OC (stereo not given) , write its GI50.
Reply: > 100 µM (inactive)

Task item: For "O=C(Cc1nc2ccccc2o1)C(=O)Nc1ccc(Cl)cc1Cl" , write its GI50.
Reply: > 100 µM (inactive)

Task item: For "CCCCCCC(=O)C/C(CCC(=O)N(Cc1ccccc1)Cc1ccccc1)=N\NC(N)=O" , write its GI50.
Reply: > 100 µM (inactive)

Task item: For "O=C(O)c1cc2ccccc2c(Cc2c(O)c(C(=O)O)cc3ccccc23)c1O" , write its GI50.
Reply: > 100 µM (inactive)

Task item: For CC1(CCOCc2ccccc2)NC(=O)NC1=O (stereo not given) , write its GI50.
Reply: > 100 µM (inactive)

Task item: For "CC1=[N+](C)CCN1C" , write its GI50.
Reply: > 100 µM (inactive)

Task item: For CC1(C)NC(=O)C(NC(=O)C(CC(=O)OCc2ccccc2)NC(=O)OCc2ccccc2)CCCCNC(=O)CCNC1=O (stereo not given) (Cbz-D(OBn)K[Aib][βAla]; lactam 2-C; configuration not given here) , write its GI50.
Reply: > 100 µM (inactive)

Task item: For "CN(C)c1ccc(N=O)c(O)c1.CN(C)c1ccc(N=O)c(O)c1.[SiH4]" , write its GI50.
Reply: 11.7 µM (inactive)

Task item: For COC(=O)C1=C(N)C2=C(N)Oc3ccccc3C2CC1=C(C#N)C#N (stereo not given) , write its GI50.
Reply: 19.4 µM (inactive)
